Sourced from patent US12532884B2

- Tested on: Septoria glycines
- method_description: Example C3: mixtures against Septoria glycines (brown spot), liquid culture
- Assay type: cell-based
- experimental_setup: single component, 0.1 ppm; 100-0 scale (100=no disease growth)
measurement_label: Activity (%)
Give the quantity in %, number only.

Example entries and their recorded answers appear below.
- compound: "Cn1cc(C(=O)Nc2ccccc2-c2cc(F)c(F)c(F)c2)c(C(F)F)n1"
  Activity (%): 50
- compound: "Cc1nc2c(F)c(F)ccc2cc1Oc1cccc(F)c1C(C)(C)O [ipflufenoquin, reference compound]"
  Activity (%): 0
- compound: "Cn1cc(C(=O)Nc2cccc3c2[C@@H]2CC[C@H]3C2=C(Cl)Cl)c(C(F)F)n1 (racemic)"
  Activity (%): 70

# ---- query compound ----
CC(C)C1C2CCC1c1c(NC(=O)c3cn(C)nc3C(F)F)cccc12 (stereo not shown) has a reported Activity (%) of 70
